Data provenance is PubChem BioAssay (NCI).

System: SF-539 CNS
assay_summary: NCI-60 one-dose screen, 48 h (100 = growth as untreated, 0 = no growth, -100 = all killed)
condition_info: 10 µM unless noted
About 83,000 compounds went through this panel and 20% of them were active in at least one assay; those are over-represented in the sample as a whole.

# compound, assayed_target, growth [%]
rows = [
    ("Cc1ccc(C(=O)NCCCOc2ccc(N)cc2Cl)cc1S(=O)(=O)F", "SF-539 CNS", 103),
    ("CC(C)[C@@H]1NC(=O)[C@]2(C)CSC(=N2)c2csc(n2)CNC(=O)C[C@@H](/C=C/CCS)OC1=O", "SF-539 CNS", 21),
    ("Fc1ccc2c(c1)c(-c1nc(-c3c[nH]c4ncccc34)cs1)cn2CCCCN1CCCCC1", "SF-539 CNS", -82.4),
    ("COC(=O)CCC1=C(C)c2cc3[n-]c(cc4nc(cc5[n-]c(cc1n2)c(CCC(=O)OC)c5C)C=C4C)cc3C.[Cd+2]", "SF-539 CNS", 62.2),
    ("COc1ccc(/C=C\\c2cc(OC)c(OC)c(OC)c2)cc1OCC(=O)Nc1nc2ccc(OC(F)(F)F)cc2s1", "SF-539 CNS", 14),
    ("CCn1cnc2c(Nc3cccc(Cl)c3)nc(N[C@@H]3CCCC[C@@H]3N)nc21", "SF-539 CNS", -5.76),
    ("CC(=O)O[C@H](C[C@H](C(C)C)N(C)C(=O)[C@@H](NC(=O)[C@H]1CCCCN1C)C(C)C)c1nc(C(=O)N[C@@H](Cc2ccccc2)C[C@H](C)C(=O)O)c(C(C)C)s1", "SF-539 CNS", -10.7),
    ("COC(=O)[C@@H](NC(=O)c1cn(CCC2CCCCC2)c2ccccc12)C(C)(C)C", "SF-539 CNS", 88.1),
    ("C[N+]12CN3CN(CN(C3)C1)C2", "SF-539 CNS", 102),
    ("COc1ccc(Nc2ccnc3cc(Cl)ccc23)cc1CN(CCCl)CCCl", "SF-539 CNS", -75.8),
    ("COc1ccc(/C=C\\c2cc(OC)c(OC)c(OC)c2)cc1OCC(=O)Nc1nc2ccc(C(F)(F)F)cc2s1", "SF-539 CNS", -18.6),
    ("O=C1CCC2(O)[C@@H]3Cc4ccc(O)c5c4[C@]2(CCN3Cc2ccoc2)C1O5 (some centres not stated)", "SF-539 CNS", 97.8),
]

###

System: HOP-92 NSCLC
assay_summary: NCI-60 one-dose screen, 48 h
condition_info: 10 µM unless noted
The panel holds about 83,000 compounds, 20% with a hit somewhere; the sample as a whole holds those more often. The source made the active and inactive calls. How the source made its calls: active means growth percent below 10; inactive means the rest.
Outcomes: y (active), n (inactive)

# compound, group
records = [
    ("NC(=O)c1c(Br)n(C2OC(CO)C(O)C2O)c2ncnc(N)c12 (stereo not drawn)", "y"),
    ("O=C(O)C(O)C(O)C1[O][Sb]([c]2ccc([N+](=O)[O-])cc2)[O]C1CO (stereo not drawn)", "n"),
    ("COC(=O)[C@@]1(C)CC[C@]2(C)CC[C@]3(C)C4=CC(=O)c5c(cc(O)c(O)c5C)[C@]4(C)CC[C@@]3(C)[C@@H]2C1", "n"),
]
